- test_target: NADPH oxidase 5 (Homo sapiens) (UniProt Q96PH1)
- Sequence (Q96PH1 whole entry, looked up): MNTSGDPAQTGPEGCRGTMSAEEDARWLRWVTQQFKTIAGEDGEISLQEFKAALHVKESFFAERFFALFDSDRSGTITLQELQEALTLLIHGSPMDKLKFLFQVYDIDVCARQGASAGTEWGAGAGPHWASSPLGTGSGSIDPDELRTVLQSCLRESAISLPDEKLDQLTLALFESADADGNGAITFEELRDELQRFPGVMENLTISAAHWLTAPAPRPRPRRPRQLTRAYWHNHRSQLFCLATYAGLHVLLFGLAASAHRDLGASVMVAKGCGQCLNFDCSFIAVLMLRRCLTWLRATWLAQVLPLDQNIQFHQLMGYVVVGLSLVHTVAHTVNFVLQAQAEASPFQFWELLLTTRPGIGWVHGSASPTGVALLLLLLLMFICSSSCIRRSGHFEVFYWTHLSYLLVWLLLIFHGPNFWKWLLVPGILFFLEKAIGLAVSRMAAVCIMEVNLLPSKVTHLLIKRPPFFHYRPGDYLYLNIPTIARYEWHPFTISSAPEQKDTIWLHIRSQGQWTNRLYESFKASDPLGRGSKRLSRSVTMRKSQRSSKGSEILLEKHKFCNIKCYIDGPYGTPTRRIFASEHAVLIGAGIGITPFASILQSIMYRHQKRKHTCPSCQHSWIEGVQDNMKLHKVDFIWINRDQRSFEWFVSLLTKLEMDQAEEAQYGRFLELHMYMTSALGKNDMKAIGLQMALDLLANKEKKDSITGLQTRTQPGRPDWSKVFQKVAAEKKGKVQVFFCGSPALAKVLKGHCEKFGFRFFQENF
- protocol_notes: NOX5-dependent H2O2 signal modulators, primary screen, NOX inhibitor project, cell-based, HEK293-NOX5, Amplex Red fluorescence (AID 1161)
- measurement_setup: HEK293-NOX5, ionomycin, 45 min, higher = more signal
readout: z-score
Note: the reply should be a number with no unit written.

For orientation, consider the following solved cases.
[[record]]
chemical_string = "CCS[C@H]1[C@@H](C(=O)O)[C@H](c2ccc(C)cc2)N(S(=O)(=O)c2ccc(C)cc2)[C@@H]1CC"
test_target = "NADPH oxidase 5 (Homo sapiens) (UniProt Q96PH1)"
readout = "z-score"
observed = 0.271

[[record]]
chemical_string = "CC(C)NC(=O)[C@@]1(C)c2ccccc2C(=O)N(Cc2cc(C(F)(F)F)cc(C(F)(F)F)c2)[C@H]1c1ccc(CO)cc1"
test_target = "NADPH oxidase 5 (Homo sapiens) (UniProt Q96PH1)"
readout = "z-score"
observed = 0.685

[[record]]
chemical_string = "COC(=O)C[C@H]1O[C@]2(C(=O)N(C)c3ccccc32)[C@@H](C)[C@@H]1[Si](C)(C)F"
test_target = "NADPH oxidase 5 (Homo sapiens) (UniProt Q96PH1)"
readout = "z-score"
observed = 1.45


Request: Fill in the blank: the reported z-score of COCCOC(=O)N1C(=O)[C@@]2(c3cc(C#CCC(C(=O)OC)C(=O)OC)ccc31)[C@H](c1ccccc1OCCO)N1[C@H](c3ccccc3)[C@H](c3ccccc3)OC(=O)[C@H]1[C@@H]2C(=O)NC[C@H](O)c1ccccc1 is ____.
Response: 1.41

----------
Each item that follows carries a reported composite z-score.
- test_target: Torsin-1A (Homo sapiens)
- protocol_notes: small-molecule binders of mutant TOR1A in lysate, primary screen, cell lysate, small-molecule microarray, COS7 lysate, 635/667 nm fluorescence (AID 1150);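 also: score pools 667 nm emission and signal to noise measuring lysate protein binding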
- measurement_setup: COS7 hTOR1A mutant lysate, 635 nm fluorescence, higher = more signal
Note: the reply should be a number with no unit written.

[[record]]
compound = "C=CCN1C(=O)[C@@]2(CC=C)N=C(c3ccc(OCCCO)cc3)O[C@H]2c2ccccc21"
observed = 0.658

[[record]]
compound = "Cc1ccc(S[C@]2(C(=O)NCCCN(C)C)CC(=O)N(Cc3cc(C(F)(F)F)cc(C(F)(F)F)c3)[C@@H]2c2ccc(CO)cc2I)cc1"
observed = -0.88

[[record]]
compound = "COCCOC(=O)N1C(=O)[C@@]2(c3cc(C#CCC(C(=O)OC)C(=O)OC)ccc31)[C@H](C(=O)Nc1nc3ccccc3s1)[C@H]1C(=O)O[C@H](c3ccccc3)[C@H](c3ccccc3)N1[C@@H]2c1ccccc1OCCO"
observed = 0.456

[[record]]
compound = "C=CCC(OC(C)=O)[C@@H]1[C@@H](N(Cc2cccc3ccccc23)C(=O)c2ccc(-c3ccccc3)cc2)c2cc(OCCCO)ccc2N1C(=O)c1ccc2ccccc2c1 (stereo not given in full)"
observed = -0.0217

[[record]]
compound = "CC(C)C(=C=CC[C@@H](O)c1ccc(OCCO)cc1)C[C@@H](O)c1ccccn1"
observed = 0.205

[[record]]
compound = "CC(C)N1C(=O)c2ccccc2[C@](C)(C(=O)NCCN2CCOCC2)[C@@H]1c1ccc(CO)cc1"
observed = 0.212

[[record]]
compound = "CC(C)N1C(=O)C[C@@](C(=O)NCC(F)(F)F)(c2ccc([N+](=O)[O-])cc2)[C@H]1c1ccc(CO)cc1"
observed = 0.0412

[[record]]
compound = "O=C(NCCO)C1=C[C@H](Oc2ccccc2I)[C@@H](O)[C@H](N(Cc2ccco2)C(=O)Cc2ccccc2)C1"
observed = 0.0805


Request: Fill in the blank: the reported composite z-score of CCN(CC)c1ccc(N2CC=CC34O[C@@H]5C=CCCOC(=O)C5[C@H]3C(=O)N(CCCCCCO)[C@@H]4C2=O)cc1 (stereo not given in full) is ____.
Response: 1.57

Request: Fill in the blank: the reported composite z-score of O=C1C[C@@](C(=O)NCC(F)(F)F)(c2ccc([N+](=O)[O-])cc2)[C@@H](c2ccc(CO)cc2I)N1C1CCCCC1 is ____.
Response: 0.35

Request: Fill in the blank: the reported composite z-score of C[C@@]1([C@@H](NC(=O)c2ccc(-c3ccccc3)cc2)c2ccc(Cl)cc2)C[C@H]1C1CCCCC1 is ____.
Response: 0.0484

Request: Fill in the blank: the reported composite z-score of C[N+](C)(C)CCCCNC(=O)[C@H]1C[C@H]2C(=O)N3CCC[C@H]3C(=O)N2[C@H]1c1cccc(OCCO)c1 is ____.
Response: 0.678

Request: Fill in the blank: the reported composite z-score of CC(C)C[C@@H]1NC(=O)[C@@H]2C[C@H](C(=O)NCc3ccc(F)cc3)[C@H](c3cccc(OCCO)c3)N2C1=O is ____.
Response: 1.3

Request: Fill in the blank: the reported composite z-score of CC(C)C(=C=CC[C@@H](O)c1ccc(OCCO)cc1)C[C@@H](O)COCc1ccccc1 is ____.
Response: -0.208

Request: Fill in the blank: the reported composite z-score of CCC[C@@H]1C[C@@]1(CCC)[C@@H](NS(=O)(=O)c1cccc2cccnc12)c1ccc(Cl)cc1 is ____.
Response: 0.177

----------
- protocol_notes: COS7 lysate on small-molecule microarray, probe aHis, 635 nm (AID 1123);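 also: z-score combines 667nm fluorescence intensity with signal-to-noise per printed compound spot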
- measurement_setup: COS7 cell lysate, fluorescence, higher = more signal
Label Y for high-side composite z-score (at or above 1) and N for low-side composite z-score (below it).

[[record]]
molecule = "COC(=O)[C@@]1(Cc2ccc(F)cc2)[C@H]2c3cc(C(=O)N(C)C)n(Cc4ccc(Cl)c(C(F)(F)F)c4)c3C[C@H]2CN1C(=O)c1ccccc1"
label_value = "Y"

[[record]]
molecule = "COc1ccc(C(O)C2C=CC3C(=O)N(Cc4ccccc4)C(=O)C3N2n2cnnc2)cc1OCc1ccccc1 (stereo not drawn)"
label_value = "Y"

[[record]]
molecule = "COc1cc(NN2C(C(O)c3ccco3)C=CC3C(=O)N(c4ccccc4)C(=O)C32)cc(OC)c1OC (stereo not drawn)"
label_value = "Y"

[[record]]
molecule = "C=C(C(=O)CC[C@@H](OC(=O)c1cccnc1)c1ccccc1OCCO)C(C)C"
label_value = "N"

[[record]]
molecule = "COc1ccccc1CN1C(=O)c2ccccc2[C@@H](C(=O)NC2CC2)[C@@H]1c1ccc(CO)cc1"
label_value = "Y"

[[record]]
molecule = "C=CCC(OC(C)=O)[C@@H]1[C@@H](N(Cc2ccc(-c3ccccc3)cc2)C(=O)c2cccc3ccccc23)c2cc(OCCCO)ccc2N1C(=O)c1ccc(-c2ccccc2)cc1 (stereo partly drawn)"
label_value = "Y"


Request: Identify whether the reported composite z-score of the following molecule is 1 or greater: COC(=O)[C@H](Cc1ccccc1)N[C@@H](/C=C/C1CC1)[C@H](O)Cc1ccccc1
Response: N

Request: Identify whether the reported composite z-score of the following molecule is 1 or greater: O=C(N1CCCCC1)[C@]1(Cc2ccccc2)N=C(c2ccc(OCCCO)cc2)O[C@@H]1c1ccccc1
Response: Y

----------
- protocol_notes: A549 cell viability effects, profiling panel, calcein-AM fluorescence, 48 h, basal (AID 1162); also: test concentration not given here
- measurement_setup: higher = more signal
Label Met for high-side z-score (at or above 0.2) and Not met for low-side z-score (below it).

Request: Identify whether the reported z-score of the following compound is 0.2 or greater: COc1ccc(/C=C/C=O)cc1
Response: Met

Request: Identify whether the reported z-score of the following compound is 0.2 or greater: C=CCOC(=O)[C@H]1[C@@H]2C(=O)O[C@@H](c3ccccc3)[C@@H](c3ccccc3)N2[C@@H](c2ccc(OCCOC(=O)[C@H]3C[C@H]4C(=O)N[C@@H](CCCCNC(C)=O)C(=O)N4[C@H]3c3ccc(O)cc3)cc2)[C@]12C(=O)Nc1ccc(I)cc12
Response: Not met

Request: Identify whether the reported z-score of the following compound is 0.2 or greater: CCOC(=O)C[C@H]1[C@H](OC(=O)c2cc3ccccc3oc2=O)[C@@H](NC(=O)c2ccccc2)c2cc(OCCCO)ccc2N1C(=O)c1ccc2ccccc2n1
Response: Met

Request: Identify whether the reported z-score of the following compound is 0.2 or greater: Cc1ccc([C@@H]2C[C@@H](Sc3ccccc3)[C@H](C(=O)O)CN2S(=O)(=O)c2ccc(C)cc2)cc1
Response: Not met

Request: Identify whether the reported z-score of the following compound is 0.2 or greater: C[N+](C)(C)CCCCNC(=O)[C@@H]1C[C@@H]2C(=O)N[C@@H](Cc3ccccc3)C(=O)N2[C@@H]1c1cccc(OCCO)c1
Response: Met

Request: Identify whether the reported z-score of the following compound is 0.2 or greater: O=C1OCCC/C=C\[C@H]2OC34C=CCN(Cc5ccccc5)C(=O)[C@H]3N(CCCO)C(=O)[C@@H]4C12 (some centres not stated)
Response: Not met

Request: Identify whether the reported z-score of the following compound is 0.2 or greater: C=CCNC(=O)[C@H]1[C@@H]2C(=O)O[C@@H](c3ccccc3)[C@@H](c3ccccc3)N2[C@@H](c2ccccc2OCCO)[C@]12C(=O)Nc1ccc(C#CCC(C(=O)OC)C(=O)OC)cc12
Response: Met
